- Protocol Summary: chemical genetic growth profiling, strain panel (AID 1159580);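 also: tested at 20 µM; growth read once vehicle control cultures reached saturation at 30 °C; 1 = growth at the plate median or of vehicle wells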
- Condition Details: S. cerevisiae deletion strains, growth OD, locus YLR342W, strain FKS1 (second series), stronger effect = lower value
About 2,000 (36%) of roughly 5,500 compounds were called active. Roughly 18% stayed inconclusive and do not appear here. Some of the results follow.
Exercise: state measured normalized growth for each of the compounds provided.
Answer field: number only, no words.

Asked: For the compound shown here, CN1CCC(=C2c3ccccc3Sc3ccccc32)CC1 , give the reported normalized growth.
Given back: 0.859

Asked: // lookup normalized growth for C[C@H]1CC2C([C@@H](O)C[C@@]3(C)C2CC[C@]3(O)C(=O)CO)[C@@]2(C)C=CC(=O)C=C12 (some centres undefined)
Given back: 1.01

Asked: Item under review: CC(C(=O)O)c1cccc(Oc2ccccc2)c1 (centres undefined) . Reported normalized growth?
Given back: 0.999

Asked: Name the reported normalized growth value associated with the compound OCCN1C[C@@H](O)[C@@H](O)C(O)C1CO (some centres undefined)
Given back: 1.01

Asked: Which normalized growth value belongs to CC1(C)C(C=C(Cl)Cl)C1C(=O)OC(C#N)c1cccc(Oc2ccccc2)c1 (centres undefined) ?
Given back: 0.951

Asked: Would you mind telling me what normalized growth value was observed for C=C1C([C@]2(C)C(CC(=O)OC)[C@@](C)(COC(C)=O)OC(=O)C[C@@H]2OC(C)=O)[C@@H](OC=O)[C@H](OC(=O)C(O)C(C)CC)[C@@]2(C)[C@H](c3ccoc3)CC(=O)C12O (some centres undefined) ?
Given back: 1.01

Asked: Report normalized growth for COc1ccc(OC)c(C(O)C(C)N)c1 (centres undefined) please.
Given back: 1.01

Asked: Entry under review: COc1cc(NC(C)CCCN)c2ncccc2c1 (centres undefined) . Reported normalized growth?
Given back: 0.947

Asked: Please report the recorded normalized growth for CCN(CC)CCNC(=O)c1cc(Br)c(N)cc1OC .
Given back: 1.08

Asked: Data request, read-out normalized growth, for CC(C(=O)O)c1ccc(-c2ccccc2)c(F)c1 (centres undefined)
Given back: 0.936

Asked: What value of normalized growth has been recorded for this entry: NCCSSCCN
Given back: 1

Asked: Look up normalized growth: CC1CC2C3CC(F)C4=CC(=O)C=CC4(C)C3(F)C(O)CC2(C)C1(O)C(=O)CO (centres undefined)
Given back: 1.1

Asked: Consider the compound shown here: CN1CCC(=C2c3ccccc3CC(=O)c3sccc32)CC1 What is its recorded normalized growth?
Given back: 0.991

Asked: I would be grateful if you could share the reported normalized growth for COC1=CC(=O)C[C@@H](C)[C@]12Oc1c(Cl)c(OC)cc(OC)c1C2=O .
Given back: 0.979

----------
- Protocol Summary: chemical genetic growth profiling, strain panel (AID 1159580);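 also: tested at 20 µM; growth read once vehicle control cultures reached saturation at 30 °C; 1 = growth at the plate median or of vehicle wells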
- Condition Details: S. cerevisiae deletion strains, growth OD, locus YLR262C, strain YPT6, stronger effect = lower value
About 2,000 (36%) of roughly 5,500 compounds were called active. Inconclusive results (about 18%) are left out. This is one part of the list.
Mark yes for normalized growth under 1, no if at or over.

Asked: Consider the compound COc1ccc2cc([C@H](C)C(=O)O)ccc2c1 . Is its normalized growth strictly less than 1?
Given back: yes

Asked: # strict comparison: is reported normalized growth < 1? input = ClC1=C(Cl)C2(Cl)C3C4C=CC(C4)C3C1(Cl)C2(Cl)Cl (stereo not drawn)
Given back: yes

Asked: A record lists CC(Oc1ccccc1)C(=O)N[C@@H]1C(=O)N2[C@@H]1SC(C)(C)[C@@H]2C(=O)O (stereo partly drawn) . Is its normalized growth below 1?
Given back: no

Asked: Check if normalized growth falls below 1 for CCC(=O)O[C@H]1[C@H](O[C@@H]2[C@@H](C)[C@H](O[C@H]3C[C@@](C)(OC)[C@@H](O)[C@H](C)O3)[C@@H](C)C(=O)O[C@H](CC)[C@@](C)(O)[C@H](O)[C@@H](C)C(=O)[C@H](C)C[C@@]2(C)O)O[C@H](C)C[C@@H]1N(C)C .
Given back: yes

Source: PubChem BioAssay AID1159580
